# tgt: α-glucosidase from Saccharomyces cerevisiae (Saccharomyces cerevisiae, UniProt P53341)
# Sequence (P53341 whole entry): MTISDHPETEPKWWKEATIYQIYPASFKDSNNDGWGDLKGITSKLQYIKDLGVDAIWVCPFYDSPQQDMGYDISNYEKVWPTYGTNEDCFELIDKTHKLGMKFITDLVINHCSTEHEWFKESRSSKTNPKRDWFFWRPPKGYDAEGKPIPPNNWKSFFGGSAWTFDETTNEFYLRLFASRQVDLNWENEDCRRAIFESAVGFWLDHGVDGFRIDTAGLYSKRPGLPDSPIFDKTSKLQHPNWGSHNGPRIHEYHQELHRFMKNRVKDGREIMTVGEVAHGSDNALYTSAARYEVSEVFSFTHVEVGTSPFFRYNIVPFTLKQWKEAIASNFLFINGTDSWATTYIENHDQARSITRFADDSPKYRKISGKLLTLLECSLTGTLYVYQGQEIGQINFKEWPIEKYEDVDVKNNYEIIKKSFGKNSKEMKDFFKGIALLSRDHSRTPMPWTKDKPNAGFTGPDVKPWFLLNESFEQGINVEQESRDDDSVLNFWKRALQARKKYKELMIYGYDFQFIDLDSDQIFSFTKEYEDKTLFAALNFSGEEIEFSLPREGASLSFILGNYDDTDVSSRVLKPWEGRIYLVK
# experimental protocol: biochemical
endpoint label: pIC50
The meaning of pIC50 here: minus log10 of the concentration in molar units.

Ask | Query pIC50 on α-glucosidase from Saccharomyces cerevisiae (Saccharomyces cerevisiae, UniProt P53341) for Cc1cc(C(=O)NNC(=O)Nc2ccccc2)n[nH]1
Reply | 4.12

---

Measured pIC50 accompanies every entry in the list below.
# tgt: UniProt:P53341
# experimental protocol: biochemical
# condition details: mean ± standard deviation (n = 3); read-out: IC50 α-Glucosidase
The meaning of pIC50 here: minus log10 of the concentration in molar units.

In [3]: df
Out[3]:
                                   molecule  endpoint_label  result_value
0  Cc1cc(C(=O)NN)[nH]n1 [Compound 1, 5-methyl-1H-pyrazole-3-carbohydrazide]           pIC50          3.55

Ask | Suppose we examine the molecule Cc1cc(-c2nnc(S)n2N)n[nH]1 ; what pIC50 value has been reported?
Reply | 4.02
